target: MMP-9 (Homo sapiens, UniProt P14780); test: MMP-9 inhibition (thiopeptide or fluorescent peptide substrate); format: biochemical; settings: bounds given in uM
Sequence (P14780 94-707): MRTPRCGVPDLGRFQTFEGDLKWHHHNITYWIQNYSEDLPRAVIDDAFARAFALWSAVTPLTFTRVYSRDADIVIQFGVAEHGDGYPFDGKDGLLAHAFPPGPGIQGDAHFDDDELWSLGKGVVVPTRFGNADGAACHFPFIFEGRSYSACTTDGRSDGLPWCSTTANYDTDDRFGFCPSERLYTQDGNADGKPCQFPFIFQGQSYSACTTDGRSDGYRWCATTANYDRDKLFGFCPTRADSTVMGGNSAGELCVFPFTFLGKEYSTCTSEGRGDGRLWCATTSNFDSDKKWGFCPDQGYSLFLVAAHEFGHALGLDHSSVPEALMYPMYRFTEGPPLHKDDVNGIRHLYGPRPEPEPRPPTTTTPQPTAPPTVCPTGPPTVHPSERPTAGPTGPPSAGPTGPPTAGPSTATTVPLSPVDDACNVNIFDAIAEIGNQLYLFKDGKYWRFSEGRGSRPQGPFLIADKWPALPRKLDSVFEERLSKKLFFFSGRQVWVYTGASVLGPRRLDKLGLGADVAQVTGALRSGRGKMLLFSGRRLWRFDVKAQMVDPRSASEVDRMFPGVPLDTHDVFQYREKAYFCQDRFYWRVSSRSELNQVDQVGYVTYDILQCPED
experimental-endpoint: IC50

[[record]]
compound = "CC#CCOc1ccc(S(=O)(=O)N[C@@H]2CCCC[C@H]2C(=O)NO)cc1"
system_name = "MMP-9 (Homo sapiens, UniProt P14780)"
experimental_endpoint = "IC50"
recorded_measurement = "> 10 µM"

[[record]]
compound = "CC#CCOc1ccc(S(=O)(=O)N(C)[C@@H]2CCCC[C@H]2C(=O)NO)cc1"
system_name = "MMP-9 (Homo sapiens, UniProt P14780)"
experimental_endpoint = "IC50"
recorded_measurement = "> 10 µM"

[[record]]
compound = "CC#CCOc1ccc(S(=O)(=O)NC2C3CCC(C3)C2C(=O)NO)cc1 (stereo not shown)"
system_name = "MMP-9 (Homo sapiens, UniProt P14780)"
experimental_endpoint = "IC50"
recorded_measurement = "> 10 µM"


Reported IC50 for MMP-9 (Homo sapiens, UniProt P14780), given CC#CCOc1ccc(S(=O)(=O)N[C@H]2CCCC[C@H]2C(=O)NO)cc1 (relative stereo) ? ~10 µM

* * *

target: MMP-9 (Homo sapiens, UniProt P14780); assay: MMP-9 inhibition (thiopeptide or fluorescent peptide substrate); assay type: biochemical
experimental-endpoint: pIC50
Scale note: pIC50 = -log10(concentration in M).

Example entries and their recorded answers appear below.
[[record]]
molecule = "CC#CCOc1ccc(S(=O)(=O)N[C@H]2CCC[C@H]2C(=O)NO)cc1"
recorded_measurement = 5.30

[[record]]
molecule = "CC#CCOc1ccc(S(=O)(=O)N(C)[C@H]2CCC[C@H]2C(=O)NO)cc1"
recorded_measurement = 6.42


Would you kindly look at the next entry?
Which measured pIC50 belongs to CC#CCOc1ccc(S(=O)(=O)N(C)[C@H]2CCCC[C@H]2C(=O)NO)cc1 (relative stereo) , tested on MMP-9 (Homo sapiens, UniProt P14780)? 5.88

* * *

biological target: TNF-α converting enzyme (TACE) (Homo sapiens, UniProt P78536)
Sequence (P78536 215-824): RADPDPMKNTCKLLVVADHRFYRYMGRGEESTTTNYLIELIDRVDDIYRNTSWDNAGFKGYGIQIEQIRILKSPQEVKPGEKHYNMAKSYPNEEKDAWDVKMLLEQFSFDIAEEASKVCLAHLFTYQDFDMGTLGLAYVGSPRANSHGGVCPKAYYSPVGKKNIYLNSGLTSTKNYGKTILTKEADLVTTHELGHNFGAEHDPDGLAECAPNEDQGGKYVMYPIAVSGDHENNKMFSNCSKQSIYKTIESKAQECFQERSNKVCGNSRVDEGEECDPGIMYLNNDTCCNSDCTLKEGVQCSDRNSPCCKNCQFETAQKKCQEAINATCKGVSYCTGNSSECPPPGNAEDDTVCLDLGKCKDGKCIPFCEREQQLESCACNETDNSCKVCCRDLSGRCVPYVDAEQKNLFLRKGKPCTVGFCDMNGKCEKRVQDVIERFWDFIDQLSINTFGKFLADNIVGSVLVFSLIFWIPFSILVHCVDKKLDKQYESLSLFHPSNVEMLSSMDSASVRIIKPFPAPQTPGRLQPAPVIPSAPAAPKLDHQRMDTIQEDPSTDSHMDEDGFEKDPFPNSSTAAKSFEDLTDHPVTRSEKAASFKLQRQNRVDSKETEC
log10(IC50) by entry:
The base-10 logarithm of IC50, taken with IC50 in nM, is what appears here.

[[record]]
compound = "CC#CCOc1ccc(S(=O)(=O)N(C)[C@H]2CCC[C@H]2C(=O)NO)cc1"
recorded_measurement = 1.15


Test system TNF-α converting enzyme (TACE) (Homo sapiens, UniProt P78536); read-out log10(IC50); what value for CC#CCOc1ccc(S(=O)(=O)N[C@@H]2CCCC[C@H]2C(=O)NO)cc1 ? 1.79

Request: log10(IC50), test system TNF-α converting enzyme (TACE) (Homo sapiens, UniProt P78536), entry CC#CCOc1ccc(S(=O)(=O)NCCC(=O)NO)cc1 2.16

Please state recorded log10(IC50) (tested on TNF-α converting enzyme (TACE) (Homo sapiens, UniProt P78536)) of CC#CCOc1ccc(S(=O)(=O)N(C)C2C3CCC(C3)C2C(=O)NO)cc1 (centres unmarked) 1.79

Query log10(IC50) on TNF-α converting enzyme (TACE) (Homo sapiens, UniProt P78536) for CC#CCOc1ccc(S(=O)(=O)N[C@H]2CCCC[C@H]2C(=O)NO)cc1 (relative stereo) 1.56

* * *

target: MMP-1 (Homo sapiens, UniProt P03956); experiment: MMP-1 inhibition (thiopeptide or fluorescent peptide substrate); format: biochemical; settings: bounds given in uM
Sequence (P03956 100-469): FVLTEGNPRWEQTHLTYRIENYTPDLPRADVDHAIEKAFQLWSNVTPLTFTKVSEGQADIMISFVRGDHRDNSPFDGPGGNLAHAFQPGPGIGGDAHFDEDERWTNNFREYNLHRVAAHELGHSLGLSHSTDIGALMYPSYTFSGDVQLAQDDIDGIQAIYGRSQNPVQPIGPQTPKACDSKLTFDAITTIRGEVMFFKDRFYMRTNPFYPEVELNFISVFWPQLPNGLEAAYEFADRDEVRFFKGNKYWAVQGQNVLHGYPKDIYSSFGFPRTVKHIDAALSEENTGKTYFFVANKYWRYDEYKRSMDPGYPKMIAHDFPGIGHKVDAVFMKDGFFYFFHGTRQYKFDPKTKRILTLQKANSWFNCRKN
experimental-endpoint: IC50

Some entries whose results are on file:
[[record]]
compound = "CC#CCOc1ccc(S(=O)(=O)N[C@@H]2CCCC[C@H]2C(=O)NO)cc1"
experimental_endpoint = "IC50"
recorded_measurement = "> 10 µM"

[[record]]
compound = "CC#CCOc1ccc(S(=O)(=O)N(C)[C@@H]2CCCC[C@H]2C(=O)NO)cc1"
experimental_endpoint = "IC50"
recorded_measurement = "> 10 µM"

[[record]]
compound = "CC#CCOc1ccc(S(=O)(=O)N[C@H]2CCC[C@H]2C(=O)NO)cc1"
experimental_endpoint = "IC50"
recorded_measurement = "> 1 µM"

[[record]]
compound = "CC#CCOc1ccc(S(=O)(=O)NC2C3CCC(C3)C2C(=O)NO)cc1 (stereo not drawn)"
experimental_endpoint = "IC50"
recorded_measurement = "> 10 µM"

[[record]]
compound = "CC#CCOc1ccc(S(=O)(=O)N[C@H]2CCCC[C@H]2C(=O)NO)cc1 (relative stereo)"
experimental_endpoint = "IC50"
recorded_measurement = "> 10 µM"


// next entry
Entry CC#CCOc1ccc(S(=O)(=O)N(C)C2C3CCC(C3)C2C(=O)NO)cc1 (stereo not drawn) : reported IC50 = ? ~10 µM

* * *

biological target: MMP-13 (Homo sapiens); test: MMP-13 inhibition (thiopeptide or fluorescent peptide substrate); format: biochemical
In this section we review reported pIC50 values for a set of molecules.
Keep it numeric: pIC50 is minus log10 of the concentration in mol/L.

Worked cases, pIC50 given:
[[record]]
molecule = "CC#CCOc1ccc(S(=O)(=O)N[C@H]2CCC[C@H]2C(=O)NO)cc1 [Example 26]"
system_name = "MMP-13 (Homo sapiens)"
experimental_endpoint = "pIC50"
recorded_measurement = 6.17

[[record]]
molecule = "CC#CCOc1ccc(S(=O)(=O)N(C)[C@H]2CCC[C@H]2C(=O)NO)cc1 [Example 30]"
system_name = "MMP-13 (Homo sapiens)"
experimental_endpoint = "pIC50"
recorded_measurement = 6.51

[[record]]
molecule = "CC#CCOc1ccc(S(=O)(=O)N[C@H]2CCCC[C@H]2C(=O)NO)cc1 (relative stereo) [Example 32]"
system_name = "MMP-13 (Homo sapiens)"
experimental_endpoint = "pIC50"
recorded_measurement = 5.76


# pIC50 lookup, item CC#CCOc1ccc(S(=O)(=O)N(C)C2C3CCC(C3)C2C(=O)NO)cc1 (centres unmarked) [Example 42] 5.94

Data request, read-out pIC50, for CC#CCOc1ccc(S(=O)(=O)N(C)[C@H]2CCCC[C@H]2C(=O)NO)cc1 (relative stereo) [Example 36] 5.74

* * *

As shown below, each of these compounds has a reported IC50 value.
molecular target: MMP-13 (Homo sapiens); experiment: MMP-13 inhibition (thiopeptide or fluorescent peptide substrate); type: biochemical; conditions: bounds given in uM

Below: 2 compounds and their reported IC50.
[[record]]
compound = "CC#CCOc1ccc(S(=O)(=O)NC2C3CCC(C3)C2C(=O)NO)cc1 (stereo not drawn) [Example 38]"
recorded_measurement = "~10 µM"

[[record]]
compound = "CC#CCOc1ccc(S(=O)(=O)N[C@@H]2CCCC[C@H]2C(=O)NO)cc1 [Example 18]"
recorded_measurement = "> 10 µM"


Shift focus to the following entry.
Please report the recorded IC50 for CC#CCOc1ccc(S(=O)(=O)N(C)[C@@H]2CCCC[C@H]2C(=O)NO)cc1 [Example 17] . > 10 µM
